Origin of measurements: patent EP0984967B1

# experiment.summary: Cytotoxicity assay ([3H]-methyl thymidine incorporation, cell proliferation)
# Assay type: cell-based
# measurement.conditions: vero-34, hs-68 or wi-38; positive control tested in tandem with the compounds; value varied between runs
measured.property: CC50

Reported CC50 of Nc1nc(O)c2ncn(COC(CO)CO)c2n1 [ganciclovir, reference compound] : 10 to 200 µg/mL

---

# experiment.summary: Cytotoxicity assay ([3H]-methyl thymidine incorporation, cell proliferation)
# Format: cell-based
# measurement.conditions: vero-34, hs-68 or wi-38; 50% inhibitory concentration of cell proliferation, 48 hours with compound then 18 hours [3H]-methyl thymidine; cell line not given
Known CC50 at 48 h of a selection of compounds

Reported CC50 at 48 h of O=C(NCC1CCCCC1)c1ccc2cnccc2n1 [compound #19] : 25 to 50 µg/mL

Reported CC50 at 48 h of CCCCNC(=O)Nc1ccc2cnccc2n1 [compound #53, 1-butyl-3-[1,6]naphthyridin-2-yl-urea] : 2.5 to 5 µg/mL

Reported CC50 at 48 h of CCNc1ccccc1CNC(=O)c1ccc2cncc(Br)c2n1 [compound #33] : 6.25 to 12.5 µg/mL

Reported CC50 at 48 h of O=C(NCc1ccc(Br)cc1)c1ccc2cnccc2n1 [compound #3] : 10 to 50 µg/mL

Reported CC50 at 48 h of O=C(NCc1ccccc1O)c1ccc2cnccc2n1 [compound #22] : 25 to 100 µg/mL

Reported CC50 at 48 h of O=C(NCc1ccccn1)c1ccc2cnccc2n1 [compound #18] : > 100 µg/mL

Reported CC50 at 48 h of CSc1ccccc1CNC(=O)c1ccc2cnccc2n1 [compound #21] : ~50 µg/mL

Reported CC50 at 48 h of CC(C)Oc1ccccc1CNC(=O)Nc1ccc2cnccc2n1 [compound #47] : 25 to 50 µg/mL

Reported CC50 at 48 h of C[C@H](NC(=O)Nc1ccc2cnccc2n1)c1ccccc1 [compound #50] : 12.5 to 25 µg/mL

Reported CC50 at 48 h of Cl.NCCCCNC(=O)Nc1ccc2cnccc2n1 [compound #49, hydrochloride] : 6.25 to 12.5 µg/mL

Reported CC50 at 48 h of COC(=O)c1ccccc1CNC(=O)c1ccc2cnccc2n1 [compound #23] : > 100 µg/mL
